target: E3 ubiquitin-protein ligase TRIM62 (Homo sapiens) (UniProt Q9BVG3); assay: inhibitors of TRIM62-driven CARD9 ubiquitylation, dose response, CARD9-TRIM62 disruptor project, biochemical, ubiquitin ELISA, AlphaLISA TUBE (AID 1259342); settings: TRIM62-mediated CARD9 ubiquitylation, AlphaLISA TUBE detection; at 80 µM (top of the series)
Sequence (Q9BVG3 whole entry, looked up): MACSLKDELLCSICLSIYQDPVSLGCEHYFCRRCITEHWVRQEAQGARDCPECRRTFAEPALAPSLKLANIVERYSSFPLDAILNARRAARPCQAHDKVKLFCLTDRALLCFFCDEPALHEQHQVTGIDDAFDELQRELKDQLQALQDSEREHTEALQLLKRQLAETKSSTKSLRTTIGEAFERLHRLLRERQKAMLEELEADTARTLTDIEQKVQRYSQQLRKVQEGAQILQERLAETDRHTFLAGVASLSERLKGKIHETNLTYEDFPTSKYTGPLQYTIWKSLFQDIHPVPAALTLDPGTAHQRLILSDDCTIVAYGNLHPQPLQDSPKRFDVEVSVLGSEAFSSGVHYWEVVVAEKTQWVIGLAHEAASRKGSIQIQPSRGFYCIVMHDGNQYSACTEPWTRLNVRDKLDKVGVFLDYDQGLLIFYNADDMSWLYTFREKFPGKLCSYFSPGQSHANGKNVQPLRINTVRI
Calls of active or inactive are those of the source.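 How the source made its calls: active means fitted half-maximal inhibitory concentration AC50 at most ten times the top concentration tested; inconclusive means flat fit with 30 to 70% inhibition, or unusable fit; inactive means AC50 above ten times the top concentration.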
MEASURED ATTRIBUTE: activity change, negative = inhibition

COCCC(=O)N1CCCC2(CCN(CCN3CCCC3)C2=O)C1 (stereo not drawn) = inactive
CN(C)c1ccc(CN2C[C@H]3CC[C@@H]2CN(C(=O)c2ccncc2)C3)cn1 = inactive
N#CNc1nc(O)cc(=O)[nH]1 = inactive
O=C1c2cccnc2C(=O)N1Cc1ccc(S(=O)(=O)NCc2ccco2)cc1 = inactive
Cc1cc(C(=O)NCc2ccco2)on1 = inactive
C(=N\n1cnnc1SCc1ccccc1)/c1ccco1 = inactive
CCCOc1ccc(CCC(=O)O)cc1 = inactive
Cc1cnc(C)c(N2CCN(C(=O)[C@H]3CC[C@@H](N)C3)CC2)n1 = inactive
NC(=O)C1(N2CCCCC2)CCN(c2ccc(NC(=O)c3ccccc3F)cc2C(=O)O)CC1 = inactive
O=C(COC(=O)c1cc(-c2ccco2)nc2ccccc12)NCc1ccc2c(c1)OCO2 = inactive

Given the compound COCC(=O)n1nc(-c2ccco2)nc1NCc1cccs1 , what is its reported activity change, negative = inhibition?
inactive

Given the compound O=C(NC(Sc1ncccn1)C(=O)c1ccccc1)c1ccccc1 (stereo not drawn) , what is its reported activity change, negative = inhibition?
inactive

Given the compound NC(=O)C1(N2CCCCC2)CCN(c2ccc(NC(=O)c3cccc(Cl)c3)cc2C(=O)O)CC1 , what is its reported activity change, negative = inhibition?
inactive

Given the compound COc1ccc(CNC(=O)c2nc(Nc3ccc(C)cc3)c3ccccc3n2)cc1 , what is its reported activity change, negative = inhibition?
inactive

Given the compound O=C1C=C(c2ccccc2)Nc2ccccc2N1 , what is its reported activity change, negative = inhibition?
inactive

Given the compound O=C(NCc1ccco1)c1ccc(S(=O)(=O)N2CCOCC2)cc1 , what is its reported activity change, negative = inhibition?
inactive
